procedure.text: Cytotoxicity against primary rat hepatocytes (normal hepatic cells)
Assay type: cell-based
condition.details: rat, primary rat hepatocytes
measured.endpoint: IC50 (µM)
Numbers only, in µM.

See these solved cases before continuing.
CNC(=O)c1cc(Oc2ccc(NC(=O)Nc3ccc(Cl)c(C(F)(F)F)c3)cc2)ccn1 [Sorafenib, reference compound] | 17.3
Cc1nc2ccccc2n(CC(=O)Nc2ccc(C(=O)NC(C)(C)C)cc2)c1=O [Compound 27a] | 19.9

// next entry
Looking up Cc1ccccc1NC(=O)c1ccc(NC(=O)CSc2nc3ccccc3nc2C)cc1 [Compound 30f] , I found its IC50 recorded as 15.7

----------
Consider the following compounds; for each one, report its pIC50.
System: MCF-7
procedure.text: MTT anti-proliferative assay, MCF-7
Assay type: cell-based
condition.details: Homo sapiens, MCF7; MCF-7, MTT assay; read-out: Cytotoxicity on cancer cells IC50, MCF-7
Numbers only, as −log10 of the molar value.

Cc1ccccc1NC(=O)c1ccc(NC(=O)CSc2nc3ccccc3nc2C)cc1 [Compound 30f] | 4.74
Cc1nc2ccccc2nc1SCC(=O)Nc1ccc(C(=O)Nc2ccccc2)cc1 [Compound 30e] | 4.50
Cc1nc2ccccc2nc1SCC(=O)Nc1ccc(C(=O)Nc2ccc(Cl)cn2)cc1 [Compound 30i] | 4.76
Cc1nc2ccccc2nc1SCC(=O)Nc1ccc(C(=O)NCc2ccccc2)cc1 [Compound 30c] | 4.38
Cc1nc2ccccc2nc1SCC(=O)Nc1ccc(C(=O)NNC(=O)c2ccccc2)cc1 [Compound 31a] | 4.64

Give pIC50 for all compounds that follow.
1. Cc1nc2ccccc2nc1SCC(=O)Nc1ccc(C(=O)NC2CCCCC2)cc1 [Compound 30b]
2. COc1cccc(OC)c1NC(=O)c1ccc(NC(=O)CSc2nc3ccccc3nc2C)cc1 [Compound 30g]
3. COc1cccc(OC)c1NC(=O)c1ccc(NC(=O)Cn2c(=O)c(C)nc3ccccc32)cc1 [Compound 27c]
4. Cc1nc2ccccc2n(CC(=O)Nc2ccc(C(=O)NCCc3ccccc3)cc2)c1=O [Compound 27b]
5. Cc1nc2ccccc2n(CC(=O)Nc2ccc(C(=O)Nc3ccc(Cl)cn3)cc2)c1=O [Compound 27f]
6. Cc1nc2ccccc2nc1SCC(=O)Nc1ccc(C(=O)NNC(=O)c2ccc([N+](=O)[O-])cc2)cc1 [Compound 31b]
7. Cc1cccc(C)c1NC(=O)c1ccc(NC(=O)Cn2c(=O)c(C)nc3ccccc32)cc1 [Compound 27d]
8. Cc1nc2ccccc2n(CC(=O)Nc2ccc(C(=O)NC(C)(C)C)cc2)c1=O [Compound 27a]

Response:
1. 4.36
2. 4.21
3. 4.24
4. 4.21
5. 4.64
6. 4.72
7. 4.51
8. 5.11

----------
study.system: human VEGFR-2 (Homo sapiens)
Construct: endogenous in cells; host or cells: HepG2
Sequence (P35968 20-1356): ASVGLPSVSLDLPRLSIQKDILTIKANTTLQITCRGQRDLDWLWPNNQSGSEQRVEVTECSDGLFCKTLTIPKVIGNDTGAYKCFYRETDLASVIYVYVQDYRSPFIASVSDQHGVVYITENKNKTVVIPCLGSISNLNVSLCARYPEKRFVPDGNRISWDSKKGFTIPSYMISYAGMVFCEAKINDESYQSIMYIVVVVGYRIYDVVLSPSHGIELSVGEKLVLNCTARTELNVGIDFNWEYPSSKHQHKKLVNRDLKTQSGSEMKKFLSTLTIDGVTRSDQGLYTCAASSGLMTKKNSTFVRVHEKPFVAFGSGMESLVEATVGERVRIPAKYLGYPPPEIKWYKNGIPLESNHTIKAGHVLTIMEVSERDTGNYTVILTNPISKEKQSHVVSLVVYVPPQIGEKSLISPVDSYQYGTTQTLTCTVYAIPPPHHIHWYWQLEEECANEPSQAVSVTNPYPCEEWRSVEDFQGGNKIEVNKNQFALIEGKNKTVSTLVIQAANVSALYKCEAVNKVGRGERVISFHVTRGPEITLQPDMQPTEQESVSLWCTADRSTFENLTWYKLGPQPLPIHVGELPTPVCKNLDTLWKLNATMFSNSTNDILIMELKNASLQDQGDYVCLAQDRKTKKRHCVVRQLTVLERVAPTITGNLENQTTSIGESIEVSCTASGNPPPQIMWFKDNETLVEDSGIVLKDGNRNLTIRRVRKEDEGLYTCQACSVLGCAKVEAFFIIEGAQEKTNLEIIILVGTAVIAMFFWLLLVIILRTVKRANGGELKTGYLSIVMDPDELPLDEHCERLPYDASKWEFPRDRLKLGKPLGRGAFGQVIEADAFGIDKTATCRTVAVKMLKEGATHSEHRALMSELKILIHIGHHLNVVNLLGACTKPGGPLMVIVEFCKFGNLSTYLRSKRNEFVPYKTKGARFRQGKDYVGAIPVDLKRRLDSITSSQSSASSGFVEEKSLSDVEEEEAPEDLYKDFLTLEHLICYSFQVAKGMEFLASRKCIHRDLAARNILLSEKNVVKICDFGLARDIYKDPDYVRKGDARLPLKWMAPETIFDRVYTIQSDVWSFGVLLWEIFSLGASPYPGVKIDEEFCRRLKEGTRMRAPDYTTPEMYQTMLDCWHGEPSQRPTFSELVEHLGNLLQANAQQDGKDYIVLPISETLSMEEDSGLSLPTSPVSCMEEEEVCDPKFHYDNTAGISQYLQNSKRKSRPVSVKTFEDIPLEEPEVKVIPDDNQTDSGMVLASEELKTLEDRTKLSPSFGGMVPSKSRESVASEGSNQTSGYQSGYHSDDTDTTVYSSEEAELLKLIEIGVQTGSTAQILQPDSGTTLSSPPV
procedure.text: In vitro VEGFR-2 enzyme inhibition assay (ELISA kit, HepG2 cell line)
Type: biochemical
condition.details: human VEGFR-2 in HepG2 cell line
IC50 strictly less than 10 nM = y. Otherwise n.

Worked cases, answers included:
Cc1cccc(C)c1NC(=O)c1ccc(NC(=O)Cn2c(=O)c(C)nc3ccccc32)cc1 [Compound 27d] | n
Cc1nc2ccccc2nc1SCC(=O)Nc1ccc(C(=O)NC(C)(C)C)cc1 [Compound 30a] | n
Cc1nc2ccccc2n(CC(=O)Nc2ccc(C(=O)Nc3ccc([N+](=O)[O-])cc3)cc2)c1=O [Compound 27e] | n

Request: # check: IC50 < 10 nM for Cc1nc2ccccc2nc1SCC(=O)Nc1ccc(C(=O)NCCc2ccccc2)cc1 [Compound 30d]
Response: n

Request: # check: IC50 < 10 nM for Cc1nc2ccccc2nc1SCC(=O)Nc1ccc(C(=O)NCc2ccccc2)cc1 [Compound 30c]
Response: n

Request: # check: IC50 < 10 nM for Cc1nc2ccccc2nc1SCC(=O)Nc1ccc(C(=O)Nc2ccccc2)cc1 [Compound 30e]
Response: n

Request: # check: IC50 < 10 nM for Cc1nc2ccccc2n(CC(=O)Nc2ccc(C(=O)Nc3ccc(Cl)cn3)cc2)c1=O [Compound 27f]
Response: n

Request: # check: IC50 < 10 nM for COc1cccc(OC)c1NC(=O)c1ccc(NC(=O)Cn2c(=O)c(C)nc3ccccc32)cc1 [Compound 27c]
Response: n

Request: # check: IC50 < 10 nM for Cc1nc2ccccc2n(CC(=O)Nc2ccc(C(=O)NNC(=O)c3ccc([N+](=O)[O-])cc3)cc2)c1=O
Response: y

The origin of these recorded values is paper PMC8344243.
